meta.source: ChEMBL document CHEMBL1145131

protocol_description: Thermodynamic aqueous solubility was determined
Type: physicochemical
reported_conditions: buffer
assay_readout: log10(solubility thermodynamic) (log10 of the value in µg/mL)
Units before log transform: µg/mL; reported quantity: solubility thermodynamic; transform: log10.

Enquiry: Input C#CC[C@@H](C(=O)N[C@H](/C=C/C(=O)OCC)C[C@@H]1CCNC1=O)n1cccc(NC(=O)c2cc(C)on2)c1=O [IMOCITRELVIR] , output reported log10(solubility thermodynamic).
Return: 2.58

Enquiry: Read off the recorded log10(solubility thermodynamic) for Cc1cc(C(=O)Nc2cccn([C@@H](Cc3ccc(F)c(F)c3)C(=O)N[C@H](/C=C/C(=O)OC(C)C)C[C@@H]3CCNC3=O)c2=O)no1
Return: 1.32

Enquiry: Tell me log10(solubility thermodynamic) reported for CCOC(=O)/C=C/[C@H](C[C@@H]1CCNC1=O)NC(=O)[C@H](CC)n1cccc(NC(=O)c2cc(C)on2)c1=O
Return: 1.58
